Measured inhibition at 0.1 µM accompanies every entry in the list below.
Biological target: Trk B (Homo sapiens, UniProt Q16620)
Sequence (Q16620 32-822): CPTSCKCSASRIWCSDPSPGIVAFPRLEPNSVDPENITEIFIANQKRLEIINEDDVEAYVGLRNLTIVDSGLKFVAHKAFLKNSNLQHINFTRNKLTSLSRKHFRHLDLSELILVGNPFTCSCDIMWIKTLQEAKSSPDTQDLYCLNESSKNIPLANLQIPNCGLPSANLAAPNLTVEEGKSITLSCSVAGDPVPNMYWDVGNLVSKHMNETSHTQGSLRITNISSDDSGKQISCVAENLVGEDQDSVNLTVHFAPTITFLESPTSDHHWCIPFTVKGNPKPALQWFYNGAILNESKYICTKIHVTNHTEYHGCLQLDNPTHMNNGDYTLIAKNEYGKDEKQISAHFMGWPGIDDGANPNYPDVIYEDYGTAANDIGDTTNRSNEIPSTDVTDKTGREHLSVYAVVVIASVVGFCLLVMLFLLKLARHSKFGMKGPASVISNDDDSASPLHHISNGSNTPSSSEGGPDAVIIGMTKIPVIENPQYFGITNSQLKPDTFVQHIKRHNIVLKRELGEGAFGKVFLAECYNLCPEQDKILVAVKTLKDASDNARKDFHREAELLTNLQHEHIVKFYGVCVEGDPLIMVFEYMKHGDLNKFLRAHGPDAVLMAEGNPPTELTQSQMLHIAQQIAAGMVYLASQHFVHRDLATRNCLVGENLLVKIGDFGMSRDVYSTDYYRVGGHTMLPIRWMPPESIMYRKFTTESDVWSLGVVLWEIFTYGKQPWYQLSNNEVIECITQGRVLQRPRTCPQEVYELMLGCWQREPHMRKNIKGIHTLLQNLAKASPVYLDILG
Assay: HotSpot kinase assay: Trk B
Format: biochemical
Conditions: 100 nM compound, read-out: % Enzyme Inhibition @ 100 nM Trk B

Please look up its inhibition at 0.1 µM: CCN(CC)C(=O)C1CCCN1c1nc2c(c(Nc3cc(C4CCCC4)[nH]n3)n1)CCC2 (stereo not shown) [Compound 116a]
> 60%

Same read-out for O=C(C1CCCN1c1nc2c(c(Nc3cc(C4CCCC4)[nH]n3)n1)CCC2)N1CCCCC1 (stereo not shown) [Compound 111a] ?
> 60%

Same read-out for O=C(C1CCCN1c1nc2c(c(Nc3cc(C4CCCC4)[nH]n3)n1)CCC2)N1CCCC1 (stereo not shown) [Compound 112a] ?
> 60%

Same read-out for O=C(C1CC(O)CN1c1nc2c(c(Nc3cc(C4CCCC4)[nH]n3)n1)CCC2)N1CCCCC1 (stereo not shown) [Compound 108b] ?
40 to 59%

* * *

Molecular target: IR (Homo sapiens)
Construct: purchased Millipore 14-803
Sequence (P06213 28-1382): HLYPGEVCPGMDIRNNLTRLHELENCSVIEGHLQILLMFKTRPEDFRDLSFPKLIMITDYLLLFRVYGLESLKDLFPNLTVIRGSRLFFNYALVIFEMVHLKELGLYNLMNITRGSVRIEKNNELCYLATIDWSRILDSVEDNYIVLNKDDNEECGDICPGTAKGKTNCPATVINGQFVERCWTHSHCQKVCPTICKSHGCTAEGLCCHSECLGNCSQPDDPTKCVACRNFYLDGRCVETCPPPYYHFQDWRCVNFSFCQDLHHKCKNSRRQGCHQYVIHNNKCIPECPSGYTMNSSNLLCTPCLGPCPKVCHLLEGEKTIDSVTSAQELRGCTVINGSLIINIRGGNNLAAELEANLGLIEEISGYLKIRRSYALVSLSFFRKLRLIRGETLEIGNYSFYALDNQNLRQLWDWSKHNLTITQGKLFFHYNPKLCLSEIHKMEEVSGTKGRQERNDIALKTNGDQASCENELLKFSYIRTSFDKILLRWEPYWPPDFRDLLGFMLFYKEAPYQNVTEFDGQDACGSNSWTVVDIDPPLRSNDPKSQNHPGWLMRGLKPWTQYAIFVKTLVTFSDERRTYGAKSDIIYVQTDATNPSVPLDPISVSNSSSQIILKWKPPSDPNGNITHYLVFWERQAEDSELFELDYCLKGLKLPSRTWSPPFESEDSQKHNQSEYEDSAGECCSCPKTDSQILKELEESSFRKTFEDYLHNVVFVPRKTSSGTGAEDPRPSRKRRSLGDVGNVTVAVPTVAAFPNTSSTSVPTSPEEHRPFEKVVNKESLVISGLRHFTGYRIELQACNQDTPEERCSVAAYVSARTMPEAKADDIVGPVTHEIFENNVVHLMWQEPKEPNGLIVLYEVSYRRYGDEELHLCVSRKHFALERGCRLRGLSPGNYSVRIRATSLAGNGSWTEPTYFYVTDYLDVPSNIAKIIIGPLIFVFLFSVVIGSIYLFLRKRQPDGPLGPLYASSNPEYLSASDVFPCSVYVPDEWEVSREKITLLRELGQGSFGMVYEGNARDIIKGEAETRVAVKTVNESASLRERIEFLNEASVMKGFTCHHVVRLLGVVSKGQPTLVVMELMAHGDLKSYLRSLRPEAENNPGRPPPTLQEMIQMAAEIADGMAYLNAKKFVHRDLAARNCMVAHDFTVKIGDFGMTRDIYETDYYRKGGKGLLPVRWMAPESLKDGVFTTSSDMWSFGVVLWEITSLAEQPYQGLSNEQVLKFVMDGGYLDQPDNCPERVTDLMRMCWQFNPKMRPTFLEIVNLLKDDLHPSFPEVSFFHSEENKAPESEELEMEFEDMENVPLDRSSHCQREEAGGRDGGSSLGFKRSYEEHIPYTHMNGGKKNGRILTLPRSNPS
Assay: In vitro IR enzymatic assay (ADP-Glo kinase assay)
Type: biochemical
Conditions: activated IR, 30 nM, N2; read-out: % Inh @ 30 nM (N2)
# inhibition at 0.03 µM >= 80% gives Criterion met, anything below gives Criterion not met

{"columns": ["Compound", "Cat"],
 "data": [
  ["CC(C)c1cc(Nc2nc(N3CCCC3C(=O)Nc3ccc(F)nc3)nc3c2CCC3)on1 (racemic) [Compound 12b]", "Criterion not met"],
  ["O=C(Nc1cnccn1)C1CCCN1c1nc2c(c(Nc3cc(C4CC4)[nH]n3)n1)CCC2 (single isomer, unassigned) [Compound 6b]", "Criterion met"],
  ["O=C(Nc1ccc(F)nc1)C1CCCN1c1nc2c(c(Nc3cc(C4CC4)[nH]n3)n1)CCC2 (single isomer, unassigned) [Compound 2b]", "Criterion met"],
  ["O=C(Nc1ccc(F)nc1)C1CCCN1c1nc2c(c(Nc3cc(C4CC4)[nH]n3)n1)CCC2 (single isomer, unassigned) [Compound 2a]", "Criterion not met"],
  ["CC(C)c1cc(Nc2nc(N3CCC[C@@H]3C(=O)Nc3ccc(F)nc3)nc3c2CCC3)on1 (single isomer, unassigned) [Compound 12a]", "Criterion not met"],
  ["CC(C)c1cc(Nc2nc(N3CCCC3C(=O)Nc3ccc(F)nc3)nc3c2CCCC3)n[nH]1 (single isomer, unassigned) [Compound 13a]", "Criterion not met"]
]}

Please indicate if the recorded inhibition at 0.03 µM for O=C(Nc1cnccn1)C1CCCN1c1nc2c(c(Nc3cc(C4CC4)[nH]n3)n1)CCC2 (single isomer, unassigned) [Compound 6a] meets or exceeds 80%.
Criterion not met

* * *

Test system: Akt phosphorylation induced by IGF-1R
Experiment: Western blot analysis of Akt phosphorylation induced by IGF-1 in HT-29 cells
Type: cell-based, Human
Conditions: 0.1 nM compound, HT-29 cells, IGF-1
# Levels of phosphorylated AKT in treated cells (pAKT/actin) >= 2 gives condition met, anything below gives condition not met

{"columns": ["Compound", "Cat"],
 "data": [
  ["O=C(Nc1ccc(F)nc1)C1CCCN1c1nc2c(c(Nc3cc(C4CC4)[nH]n3)n1)CCC2 (single isomer, unassigned) [Compound 2b]", "condition not met"]
]}

Next up:
Please indicate if the recorded Levels of phosphorylated AKT in treated cells (pAKT/actin) for O=C(Nc1cccnc1)C1CCCN1c1nc2c(c(Nc3cc(C4CC4)[nH]n3)n1)CCC2 (single isomer, unassigned) [Compound 3a] meets or exceeds 2.
condition met

* * *

Measured Levels of phosphorylated AKT in treated cells (pAKT/actin) accompanies every entry in the list below.
Tested on: Akt phosphorylation induced by IGF-1R
Assay: Western blot analysis of Akt phosphorylation induced by IGF-1 in HT-29 cells
Format: cell-based, Human
Conditions: 1 nM compound, HT-29 cells, IGF-1
Number, no unit, nothing else.

Please look up its Levels of phosphorylated AKT in treated cells (pAKT/actin): O=C(Nc1ccc(F)nc1)C1CCCN1c1nc2c(c(Nc3cc(C4CCCC4)[nH]n3)n1)CCC2 (racemic) [Compound 4]
1.59

Same read-out for CC(C)c1cc(Nc2nc(N3CCCC3C(=O)Nc3ccc(F)nc3)nc3c2CCC3)n[nH]1 (single isomer, unassigned) ?
0.31

Same read-out for O=C(Nc1ccc(F)nc1)C1CCCN1c1nc2c(c(Nc3cc(C4CC4)[nH]n3)n1)CCC2 (racemic) [Compound 2] ?
0.91

* * *

Molecular target: IR (Homo sapiens)
Construct: purchased Millipore 14-803
Test: In vitro IR enzymatic assay (ADP-Glo kinase assay)
Format: biochemical
Settings: activated IR, 30 nM, N2; 0.03 µM
Description: IC50 values of the compounds of the invention against IGF-1R and IR were measured in vitro using an ADP-Glo kinase assay Kit (Promega). […] Kinase reactions in both assays were conducted at 30° C. for 20 min with increasing concentrations of compounds of the invention. Additional compounds of the invention were screened against activated IR.
Assay readout: % Inh @ 30 nM (N2)
Units required after the number.

Lab request: please report % Inh @ 30 nM (N2) under test system IR (Homo sapiens) for O=C(Nc1ccc(F)nc1)C1CCCCN1c1nc2c(c(Nc3cc(C4CCCC4)[nH]n3)n1)CCC2 (single isomer, unassigned) [Compound 17b]
10%

Same read-out for O=C(Nc1ccc(F)nc1)[C@H]1[C@@H](O)CCN1c1nc2c(c(Nc3cc(C4CC4)[nH]n3)n1)CCC2 (single isomer, unassigned) [Compound 11a] ?
−9%

Same read-out for O=C(Nc1ccc(F)nc1)C1CCCN1c1nc2c(c(Nc3cc(C4CCCC4)[nH]n3)n1)CCCC2 (single isomer, unassigned) [Compound 15b] ?
31%

* * *

Test system: Akt phosphorylation induced by IGF-1R
Experiment: Western blot analysis of Akt phosphorylation induced by IGF-1 in HT-29 cells
Assay type: cell-based, Human
Conditions: 100 nM; Table B2 lower part
Assay readout: p-AKT relative to levels with 0.1 nM compound

Consider the following illustrative entries.
{"columns": ["Compound", "Observed value"],
 "data": [
  ["O=C(Nc1ccc(F)nc1)C1CCCN1c1nc2c(c(Nc3cc(C4CC4)[nH]n3)n1)CCCC2 (single isomer, unassigned) [Compound 14b]", 0.0],
  ["CC(C)c1cc(Nc2nc(N3CCCC3C(=O)Nc3ccc(F)nc3)nc3c2CCCC3)n[nH]1 (single isomer, unassigned) [Compound 13a]", 1.6],
  ["CC(C)c1cc(Nc2nc(N3CCC[C@H]3C(=O)Nc3ccc(F)nc3)nc3c2CCC3)n[nH]1 (single isomer, unassigned)", 0.9],
  ["O=C(Nc1ccc(F)nc1)C1CCCN1c1nc2c(c(Nc3cc(C4CCCC4)[nH]n3)n1)CCC2 (single isomer, unassigned) [Compound 4b]", 0.1]
]}

Please look up its p-AKT relative to levels with 0.1 nM compound: O=C(Nc1cnccn1)C1CCCN1c1nc2c(c(Nc3cc(C4CC4)[nH]n3)n1)CCC2 (racemic) [Compound 6]
0.0

Same read-out for O=C(Nc1ccc(F)nc1)C1CCCCN1c1nc2c(c(Nc3cc(C4CCCC4)[nH]n3)n1)CCC2 (single isomer, unassigned) [Compound 17a] ?
1.2

* * *

Biological target: IR (Homo sapiens)
Construct: purchased Millipore 14-803
Test: In vitro IR enzymatic assay (ADP-Glo kinase assay)
Assay type: biochemical
Details: activated IR, 30 nM, N1; read-out: % Inh @ 30 nM (N1)
# inhibition at 0.03 µM >= 80% gives True, anything below gives False

Consider the worked cases shown below.
{"columns": ["Compound", "Cat"],
 "data": [
  ["CC(C)c1cc(Nc2nc(N3CCCC3C(=O)Nc3ccc(F)nc3)nc3c2CCCC3)n[nH]1 (single isomer, unassigned) [Compound 13b]", "True"],
  ["O=C(Nc1cnccn1)C1CCCN1c1nc2c(c(Nc3cc(C4CC4)[nH]n3)n1)CCC2 (single isomer, unassigned) [Compound 6a]", "False"],
  ["O=C(Nc1cnccn1)C1CCCN1c1nc2c(c(Nc3cc(C4CC4)[nH]n3)n1)CCC2 (single isomer, unassigned) [Compound 6b]", "True"],
  ["O=C(Nc1ccc(F)nc1)C1CCCN1c1nc2c(c(Nc3cc(C4CC4)[nH]n3)n1)CCC2 (single isomer, unassigned) [Compound 2b]", "True"],
  ["CC(C)c1cc(Nc2nc(N3CCC[C@@H]3C(=O)Nc3ccc(F)nc3)nc3c2CCC3)on1 (single isomer, unassigned) [Compound 12a]", "False"]
]}

Please indicate if the recorded inhibition at 0.03 µM for CC(C)c1cc(Nc2nc(N3CCCC3C(=O)Nc3ccc(F)nc3)nc3c2CCCC3)n[nH]1 (single isomer, unassigned) [Compound 13a] meets or exceeds 80%.
False

Same read-out for O=C(Nc1ccc(F)nc1)C1CCCN1c1nc2c(c(Nc3cc(C4CC4)[nH]n3)n1)CCC2 (single isomer, unassigned) [Compound 2a] ?
False

Same read-out for CC(C)c1cc(Nc2nc(N3CCCC3C(=O)Nc3ccc(F)nc3)nc3c2CCC3)on1 (racemic) [Compound 12b] ?
False

Cited source: patent US9499519B2
